Target: Neu5Ac(a2-6)Gal(b1-4)GlcNAc(b1-3)Gal(b1-4)GlcNAc(b1-3)Gal(b1-4)GlcNAc(b1-2)Man(a1-3)[Neu5Ac(a2-6)Gal(b1-4)GlcNAc(b1-3)Gal(b1-4)GlcNAc(b1-3)Gal(b1-4)GlcNAc(b1-2)Man(a1-6)]GalNAc
Experiment: glycan array binding signal (z-score within array); higher = stronger binding
Details: glycan notation: IUPAC condensed, linker removed
Many of the other results were omitted from the sample, so the strongest signals are more common in it than they were.
OBSERVED_PROPERTY: glycan array binding signal (z-score)
Numbers only.

binder="DC-Sign-R (Homo sapiens), Q9H2X3 (protein) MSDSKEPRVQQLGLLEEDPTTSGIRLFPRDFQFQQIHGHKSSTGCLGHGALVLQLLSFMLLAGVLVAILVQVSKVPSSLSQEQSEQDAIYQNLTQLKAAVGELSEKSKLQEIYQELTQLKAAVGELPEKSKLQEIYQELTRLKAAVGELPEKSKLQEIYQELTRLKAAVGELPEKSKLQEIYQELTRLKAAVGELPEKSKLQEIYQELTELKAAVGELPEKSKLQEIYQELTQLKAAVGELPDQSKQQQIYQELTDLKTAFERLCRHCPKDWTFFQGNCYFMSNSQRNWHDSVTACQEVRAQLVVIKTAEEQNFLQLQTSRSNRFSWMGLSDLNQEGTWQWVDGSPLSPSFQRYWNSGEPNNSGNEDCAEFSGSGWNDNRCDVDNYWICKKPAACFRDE" recorded_result=2.81

Next up:
Recorded result, Clec2 (Mus musculus), Q9JL99 (protein) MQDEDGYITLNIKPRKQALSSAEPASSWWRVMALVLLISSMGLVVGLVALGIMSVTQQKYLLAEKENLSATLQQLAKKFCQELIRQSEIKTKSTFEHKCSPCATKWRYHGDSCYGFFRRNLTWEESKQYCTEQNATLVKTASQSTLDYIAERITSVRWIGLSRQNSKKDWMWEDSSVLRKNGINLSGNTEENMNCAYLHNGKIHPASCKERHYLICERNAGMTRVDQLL , glycan array binding signal (z-score): 4.45
